- Tested on: 786-0 renal
- assay method text: NCI-60 one-dose screen, 48 h
- measurement conditions: 10 µM unless noted
Compounds without any hit were thinned out: in the full panel of roughly 83,000, 20% have a hit. Activity calls are given as the source filed them. How the source made its calls: active means growth percent below 10; inactive means the rest.
# valid calls are active, inactive; nothing else

>  <compound>
CCCCCCCCCCCCCCCC(N)c1ccccc1 (stereo not given)

>  <discrete label>
active

$$$$
>  <compound>
COC(=O)c1c2c(c[n+]([O-])c1C)C(=O)C(NCc1ccccc1)=CC2=O

>  <discrete label>
inactive

$$$$
>  <compound>
Cn1cc(-c2csc(-c3ccc(Cl)cc3)n2)c2cccnc21

>  <discrete label>
active

$$$$
>  <compound>
CC(C)c1ccc(COCc2cc(CN3CCCC3)c(O)c3ncccc23)cc1

>  <discrete label>
active

$$$$
>  <compound>
COC(=O)c1n[nH]c2ccc3nc(-c4cn[nH]c4C(F)(F)F)c4c(c3c12)CCCC4

>  <discrete label>
inactive

$$$$

Recorded call for CC(C)n1cnc2c(=S)nc[nH]c21 ?
inactive

Hi, do you know how C=C1C(=O)O[C@H]2[C@H]1CC/C(COC(=O)CCSCCC(=O)OC/C1=C/CC[C@@]3(C)O[C@H]3[C@H]3OC(=O)C(=C)[C@@H]3CC1)=C\CC[C@@]1(C)O[C@@H]21 came out in this test?
active

// param item: CCN1C(=O)N(CC)C2C1NN=c1s/c(=C\c3cccc([N+](=O)[O-])c3)c(=O)n12 (stereo not given) ; yields the recorded call
inactive

Any idea what this test logged for Cn1ccnc1C(=O)C(=O)Nc1ccc(CC(=O)Nc2ccccc2)cc1 ?
inactive

Could you check what this test reported for Cc1nc2sc(C(=O)Nc3cccc(Cl)c3C)c(N)c2cc1C(=O)c1ccccc1 ?
inactive

Please let me know the test result on file for C/C(=N\NC(=O)c1ccccc1O)c1cccc(/C(C)=N/NC(=O)c2ccccc2O)n1 .
inactive

# lookup: test call for O=C(CSc1nnc2n1S(=O)(=O)c1ccccc1N2c1ccccc1)Nc1nc2ccc(F)cc2s1
inactive

Can you look up the reported call for Cc1ccc(NC(=S)NNC(=S)NNc2ccccc2)cc1C for me?
inactive

Called result for Fc1cc2c(cc1Cl)N(c1ncnc3ccc(-c4cnc5[nH]ncc5c4)cc13)CC2
inactive

Hey, what did the test say about COc1ccc2c(O)c(/C=C3\N=Nc4ccccc43)oc2c1C[C@@H]1CCNC[C@H]1F ?
active

Recorded values, source PubChem BioAssay (NCI).
